# targetOrTestSystem: T1, human VTCN1 protein (Homo sapiens, UniProt Q7Z7D3)
# T1 construct: His
# T1 sequence (Q7Z7D3 25-282): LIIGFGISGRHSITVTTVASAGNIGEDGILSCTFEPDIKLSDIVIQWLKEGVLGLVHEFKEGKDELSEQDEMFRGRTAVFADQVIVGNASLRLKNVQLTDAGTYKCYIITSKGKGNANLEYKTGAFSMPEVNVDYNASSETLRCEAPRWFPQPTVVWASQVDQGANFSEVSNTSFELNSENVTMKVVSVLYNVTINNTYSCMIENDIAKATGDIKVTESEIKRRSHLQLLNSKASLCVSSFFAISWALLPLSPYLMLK
# measurementProtocol: Affinity to recombinant VTCN1-his by OCTET Red (Protein A biosensors)
# Format: binding
# conditionSet: Table 9
Overview of reported K(off) across a group of molecules:
assayReadout: K(off)

hu6D9_57A4: humanized 6D9 antibody; VH SEQ ID NO: 228, VL SEQ ID NO: 224 (antibody, V domains shown) VH: QVQLVESGPGVVQPGRSLRLSCAVSGFSLTSYGVQWVRQAPGKGLEWLAVIWSSGSTDYNAAFLSRLTISKDNSKSTVYFQMNSLRAEDTAVYYCARDVTTIVEGFAHWGQGTLVTVSS VL: DIQMTQSPSSLSASVGDRVTITCKASEKVGTYVSWYQQKPGKAPKLLIYGASNRYTGVPSRFSGSGSGTDFTLTISSLQPEDFATYYCGQTYSYPFTFGQGTKLEIK
2.26E−03
hu6D9_57A5: humanized 6D9 antibody; VH SEQ ID NO: 232, VL SEQ ID NO: 224 (antibody, V domains shown) VH: QVQLVESGGGVVQPGRSLRLSCAVSGFSLTSYGVQWVRQAPGKGLEWLAVIWSSGSTDYNAAFLSRLTISKDNSKNTVYFQMNSLRAEDTAVYYCARDVTTIVEGFAHWGQGTLVTVSS VL: DIQMTQSPSSLSASVGDRVTITCKASEKVGTYVSWYQQKPGKAPKLLIYGASNRYTGVPSRFSGSGSGTDFTLTISSLQPEDFATYYCGQTYSYPFTFGQGTKLEIK
2.89E−03
hu6D9_57A3: humanized 6D9 antibody; VH SEQ ID NO: 220, VL SEQ ID NO: 224 (antibody, V domains shown) VH: QVQLVESGGGVVQPGRSLRLSCAVSGFSLTSYGVQWVRQAPGKGLEWLGVIWSSGSTDYNAAFLSRLTISKDNSKNTVYFQMNSLRAEDTAVYYCARDVTTIVEGFAHWGQGTLVTVSS VL: DIQMTQSPSSLSASVGDRVTITCKASEKVGTYVSWYQQKPGKAPKLLIYGASNRYTGVPSRFSGSGSGTDFTLTISSLQPEDFATYYCGQTYSYPFTFGQGTKLEIK
2.27E−03
